The measurements presented in this section are drawn from ChEMBL document CHEMBL1135824.

experiment: Effect (4 uM) on second-order rate constant that accelerated inhibition of factor Xa by antithrombin-CS (0 uM) complex

# Mol Smiles, second-order rate constant
measured = [
    ("CO[C@H]1O[C@H](COS(=O)(=O)O)[C@@H](O[C@H]2O[C@@H](C(=O)O)[C@@H](O[C@H]3O[C@H](COS(=O)(=O)O)[C@@H](O[C@H]4O[C@H](C(=O)O)C[C@H](O)[C@H]4O)[C@H](OS(=O)(=O)O)[C@H]3NS(=O)(=O)O)[C@H](O)[C@H]2OS(=O)(=O)O)[C@H](OS(=O)(=O)O)[C@H]1OS(=O)(=O)O", "6400 M⁻¹ s⁻¹"),
]

====

experiment: Effect (1 uM) on observed rate constant that accelerated inhibition of factor Xa by antithrombin-CS (0 uM) complex
Reported Property: second-order rate constant (M⁻¹ s⁻¹)

# Mol Smiles, Reported Property, Numeric Value
records = [
    ("CO[C@H]1O[C@H](COS(=O)(=O)O)[C@@H](O[C@H]2O[C@@H](C(=O)O)[C@@H](O[C@H]3O[C@H](COS(=O)(=O)O)[C@@H](O[C@H]4O[C@H](C(=O)O)C[C@H](O)[C@H]4O)[C@H](OS(=O)(=O)O)[C@H]3NS(=O)(=O)O)[C@H](O)[C@H]2OS(=O)(=O)O)[C@H](OS(=O)(=O)O)[C@H]1OS(=O)(=O)O", "second-order rate constant", 2400),
]

====

Recorded measurements of Kd, one per entry
experiment: Observed dissociation constant of interaction with plasma antithrombin at 25 degree Celsius in 20 mM sodium phosphate buffer at a pH 7.4; assay type: ADME, cell-free
Reported Property: Kd

# Mol Smiles, Reported Property, Result
rows = [
    ("O=S(=O)(O)Oc1cc2c(c(OS(=O)(=O)O)c1)C[C@@H](OS(=O)(=O)O)[C@@H](c1ccc(OS(=O)(=O)O)c(OS(=O)(=O)O)c1)O2", "Kd", "32.3 µM"),
    ("O=S(=O)(O)Oc1cc2c(c(OS(=O)(=O)O)c1)C[C@H](OS(=O)(=O)O)[C@@H](c1ccc(OS(=O)(=O)O)c(OS(=O)(=O)O)c1)O2", "Kd", "17.9 µM"),
]

====

Here the recorded Kd is given for each entry.
assay: Non ionic interaction with plasma antithrombin at 25 degree Celsius in 20 mM sodium phosphate buffer at a pH 7.4; format: ADME, cell-free

# Mol Smiles, Kd / µM
records = [
    ("O=S(=O)(O)Oc1cc2c(c(OS(=O)(=O)O)c1)C[C@@H](OS(=O)(=O)O)[C@@H](c1ccc(OS(=O)(=O)O)c(OS(=O)(=O)O)c1)O2", 1100),
    ("O=S(=O)(O)Oc1cc2c(c(OS(=O)(=O)O)c1)C[C@H](OS(=O)(=O)O)[C@@H](c1ccc(OS(=O)(=O)O)c(OS(=O)(=O)O)c1)O2", 2200),
]

====

experiment: Effect (4 uM) on second-order rate constant that accelerated inhibition of factor Xa by antithrombin-CS (50 uM)complex

# Mol Smiles, Readout Units, second-order rate constant
records = [
    ("CO[C@H]1O[C@H](COS(=O)(=O)O)[C@@H](O[C@H]2O[C@@H](C(=O)O)[C@@H](O[C@H]3O[C@H](COS(=O)(=O)O)[C@@H](O[C@H]4O[C@H](C(=O)O)C[C@H](O)[C@H]4O)[C@H](OS(=O)(=O)O)[C@H]3NS(=O)(=O)O)[C@H](O)[C@H]2OS(=O)(=O)O)[C@H](OS(=O)(=O)O)[C@H]1OS(=O)(=O)O", "M⁻¹ s⁻¹", 7400),
]
